Where do these numbers come from? They come from PubChem BioAssay AID504834.

- Assay Remarks: Primary qHTS for delayed death inhibitors of the malarial parasite plastid, 96 hour incubation
- Condition Summary: P. falciparum luciferase reporter growth; series mostly up to 28.7 µM
- Excerpt: The goal of this screen is to discover new antimalarial compounds that act by inhibiting the development of the apicoplast in the malarial parasite Plasmodium falciparum. […] We have developed a cell-based assay that measures parasite growth based on the expression of an integrated copy of a firefly luciferase reporter. […] Growth inhibition is detected by a decrease in luciferase activity. […]
The whole screen tested about 320,000 compounds, of which about 22,000 (6.9%) were called active. Another 27% or so got no clear call; they are omitted. The list comes from a sample in which actives are over-represented; it also holds close analogues and randomly drawn compounds.
Measured Attribute: outcome

input_smiles=O=C1NS(=O)(=O)c2ccccc21 measured_attribute=outcome val=inactive
input_smiles=Cc1cc(S(=O)(=O)N2CCOCC2)ccc1OCC(=O)Nc1cccc(C(F)(F)F)c1 measured_attribute=outcome val=inactive
input_smiles=CCC1(CC)Cc2ccccc2-c2nc(CCl)[nH]c(=O)c21 measured_attribute=outcome val=inactive

---

- Assay Remarks: Primary qHTS for delayed death inhibitors of the malarial parasite plastid, 96 hour incubation
- Condition Summary: P. falciparum luciferase reporter growth; series mostly up to 28.7 µM
Screen size: about 320,000 compounds; about 22,000 (6.9%) were called active. Another 27% or so got no clear call; they are omitted. The call rests on the fitted dose curve; in most records, active means well fitted inhibition curve with a large enough effect; inconclusive means small, poorly fitted or top-dose-only effect, or another doubt; inactive means no such curve, though single readings can be large or run the other way. For the sample, actives were picked, then their nearest neighbours and some compounds at random.
In this exercise, the only acceptable responses are yes (1) (active), no (0) (inactive)

// return assay outcome for COc1ccc(-n2c(O)c(C=NCC(c3ccco3)N3CCCC3)c3ccccc3c2=O)cc1OC (stereo not drawn)
yes (1)

Hello, I am checking results. What call was entered for CC12CCC(C(=O)N(c3cccc(Cl)c3)C1=O)C2(C)C (stereo not drawn) ?
no (0)

// param item: NC(=O)c1c(NC(=O)c2ccccc2)sc2c1CCCC2 ; yields the recorded call
no (0)

Record request — test call for Cc1nnc(SC(C)C(=O)Nc2ccc(S(=O)(=O)NC3CCCCC3)cc2)s1 (stereo not drawn)
no (0)

For this molecule, state the assay outcome: c1ccc(C2CNCc3c2ccc2ccccc32)cc1 (stereo not drawn)
yes (1)

Recorded test outcome, item CNC(=O)c1sc(Nc2ccc(OCc3ccccc3)cc2)nc1C
no (0)

Assay outcome for CC12CN3CCN(CC(C3)/C1=N\NC(=O)c1ccccc1N)C2 : what was it?
no (0)

Assay result, entry N#Cc1ccc(-c2nc3cc(C#N)c(C#N)cc3nc2-c2ccccc2)cc1C#N — outcome?
yes (1)

// return assay outcome for O=S(=O)(c1ccccc1)c1nc(-c2ccccc2)oc1NCCCN1CCOCC1
no (0)

What is the recorded call for this molecule in the test? COCCCN1C(=O)C(=O)/C(=C(/O)c2ccc(S(=O)(=O)N3CCOCC3)cc2)C1c1ccc(F)cc1 (stereo not drawn)
no (0)

Recorded test outcome, item COC(=O)C1[C@H]2SC(C)(C)C(C(=O)OC)N2C(=O)N1Cc1nc2ccccc2s1 (stereo partly drawn)
no (0)

For this molecule, state the assay outcome: N#Cc1c(-c2ccc(F)cc2)nc(-c2ccccc2)[nH]c1=O
no (0)

Record lookup: outcome of this test for COc1cccc(N(CC(=O)N2CCc3ccccc3C2)S(C)(=O)=O)c1 ?
no (0)

What is the recorded call for this molecule in the test? CCN(CC)CCCN=Cc1c(O)n(-c2ccc(C)cc2)c(=O)c2ccccc12
no (0)

Call for entry CC[N+](C)(CC)CCC[n+]1c(-c2ccccc2)c2cc(N)ccc2c2ccc(N)cc21 :
yes (1)

Dear all, I need the recorded test outcome for COc1ccc2c(c1)C(NS(=O)(=O)OCC(Cl)(Cl)Cl)CCC2 (stereo not drawn) , thank you.
no (0)

Which outcome was entered for the molecule CC1=NN(c2cccc(Cl)c2)C(=O)C12CC(C)=C(C)CS2 (stereo not drawn) in this test?
yes (1)

Assay result, entry CCN(C(=O)CN1C(=O)/C(=C/c2ccc(F)cc2)SC1=S)C1CCS(=O)(=O)C1 (stereo not drawn) — outcome?
yes (1)

Give the logged outcome of this assay for the following molecule: O=C1CN(C(=O)COC(=O)c2cnc(Cl)c(Cl)c2)c2ccccc2N1
no (0)

Please indicate how the test categorized CCc1ccc(OCC(=O)NCC(c2ccc(Cl)cc2)N2CCCCC2)cc1 (stereo not drawn) .
no (0)

Write down the call the test reported for this molecule. Item: CN(CC(=O)NCc1ccncc1)S(=O)(=O)c1ccc(Br)cc1
no (0)

Hi, do you know how CC(C)CN(C(=O)Cn1c(=O)cnc2ccccc21)C1CCS(=O)(=O)C1 (stereo not drawn) came out in this test?
no (0)

Hi, sorry to bother you, what did the test record for CC(C)=NN1C(=O)c2ccccc2NC1(C)C ?
no (0)

What outcome does the record of this test show for CCCNC(=O)C(=O)Nc1cc2c3c(c1)CCC(=O)N3CCC2 ?
no (0)

Please let me know the test result on file for Cc1ccc(S(=O)(=O)N2CCC(Oc3ccc(-n4cnnn4)cc3)CC2)cc1 .
no (0)

Hi, do you know how CN(C(=O)COC(=O)CCCc1c[nH]c2ccccc12)c1c(N)n(Cc2ccccc2)c(=O)[nH]c1=O came out in this test?
no (0)

Could you please tell me the result logged for COc1ccc(Cl)cc1-n1c(C)cc(C(=O)OCC(=O)N2CC(=O)Nc3ccccc32)c1C in this assay?
yes (1)

Hi, do you know how COc1cccc(CNC(=O)C2CC(=O)N(C3CCCCCCC3)C2)c1 (stereo not drawn) came out in this test?
no (0)

Call for entry CN(C1CCS(=O)(=O)C1)S(=O)(=O)c1ccc2ccccc2c1 (stereo not drawn) :
no (0)

What did this assay record as the result for Cc1ccc(-n2c(-c3ccc(Cl)cc3)n[nH]c2=S)cc1 ?
no (0)

Entry CCC(=C/c1sc2ccc3ccccc3c2[n+]1C)/C=C1\Sc2ccc3ccccc3c2N1C : call = ?
yes (1)

# fetch the recorded call for NC(=O)C1CC(=O)N(c2ccc(OCC(=O)NCc3ccccc3)cc2)C1 (stereo not drawn) here
no (0)

Which result was noted for this molecule in the test: Cc1ccc(Nc2nnc(SC(C)C(=O)NC3CC3)s2)cc1 (stereo not drawn)
yes (1)
